Target: T1, TRBP-dsRBD1 (UniProt Q15633-2 9-85)
T1 sequence: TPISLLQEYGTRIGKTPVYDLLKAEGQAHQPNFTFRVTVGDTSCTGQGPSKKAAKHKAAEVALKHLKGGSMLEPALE
Assay: EMSA; apparent Kd; nH 1.3; 50 mM sodium cacodylate pH 7.0, 50 mM potassium glutamate, 5% glycerol; EMSA 0.5 pM RNA, 30 min at room temperature, gel 0.25X TBE at 10 C; CD at 10 C with 5-15 uM RNA
Settings: protein: recombinant; label: 5'-32P; hairpin, 16 bp stem, UUCG loop
metric name: Kd (µM)
Entry rule: numbers only, all in µM.

Record request: Kd value, item GUCAGCAGUGCCUUAGUUCGCUAAGGCACUGCUGAC (structured_RNA) [ds16-tetra-stable]
9
